System: K4 kissing-loop RNA reporter;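 further: bound reporter read as fluorescence of individual clusters on recovered sequencing chips by microscopy, with normalized cluster intensities fitted with a binding model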
test-name: apparent KD of K4 kissing-loop reporter; higher = weaker reporter binding
assay-conditions: Eterna round: R107; input ligand: theophylline 20 uM
Each entry falls in a class defined on apparent KD of K4 kissing-loop reporter; the bands are low band: < 200 nM; middle band: ≥ 200 nM and < 400 nM; high band: ≥ 400 nM

sequence-string	classification
AGCAUUUUCAGAAGGAGCGUGAAUUAUUCUUAAUUAUAUUAUACGAGUGAUGUUCGUGUUUCACAGGUAGGUCGCUGAUAUAGCA [JR_SSArginiB_Sub004]	low band
GCCGUAGAUUGAAGGAGCGCCUUCUUACCAAGAGUGAUGUUCUUUGGUACCAUGUUCAGUAGGCAGGUAGGUCGCAAUCUACGGC	middle band
AGGAGUGAUGUUCCUACAUAGACGGUCCGACGAGGACCGGUACGGCCGCCACUCGCGUCCCAGUGAUGUUGGGAUUCAACGUACA [Exclusion Tryptophan A Gf 15]	low band
CCCUUAGACUCGGCCGCCACUCGUACCGAGAGCAUGCCACCCAUUAGUGAUGUUAAUUUGUCCUUGAGGACCGGGAGCCUAGGAA [theeternabot_exclusion_KL_Trp_B_44]	high band
UUCAGUGAUGUUGAACACUGUUGUAUAAACUAGGAUAUGCUGAUAAGCAGAAGGAGUGAUGUUCCGUUCAUCAUCAGAAUUAAAU [KL-XFMN-A3]	high band
GUAUGUGGAAACACGUACUUGUAUCCUAAGCAGGAUAUGCGGAAACGCAGAAGGGCUACCAGCGAGUUUAUCCAGUGAUGUUGGA [Ex FMN A 12]	middle band
GACAUACCUAUGGAGGGCCGAUCGAUCAUACGAGGACCGGUACGGCCGCCACUCGUGGGCAGUGAUGUUGACCCUGGGAGGUAAG	middle band
UGAUUGCCAGUGAUGUUGGCAUAUACUGAAGGAGCGCGUGAAAACGCAGGUAGGUCGCAGUUCCUUGCCAAUUGAUCGAAAGAUC [KL-XArg-A1]	low band
UGAUACCAGGCGGCCGCCACUCCCGCAGGUCAAAGACCUGCGAAGCUGGUUCUUCAGUGAUGUUGGAGGACCGGGCCUGGUAUCU [FiskerMod 25 - Jieux - Exclusion - Tryptophan B]	middle band
GCUCGUCAUGUCAGCGGUGGUACUGUCGAUACCAGUGCCGUAAGGCGCCCUUGGCAGCGAUGCGCUGGAGUGAUGUUCCAGCGUU [#2 Exclusion - Theophylline A Attempt #32 (HarryS)]	low band
CAAUGAGUAUAAGAUGAUAUCAUAACAGAAGGAGCGAGUGAUAACUCAGGUAGGUCGCUGAAUUUAUCGAGUGAUGUUCGAUAAA [whbob_SS_Arginine_A_sa116]	low band
GGUGGACUAGUCGAGUGAUGUUCGAGGCAUCGAGGACCGGUACGGCCGCCACUCGCAAAUCUACCGUGCGUUAACCACCAAAGUG [theeternabot_sameState_KL_Trp_A_37]	middle band
UUCUACGAGUGAUGUUCGUAGUGUAUUCACUAGGAUAUCGUUUUUUCGAGAAGGAGUGAGGAAGUGAUACGAAAGUAUCGCUUCC [FMN A 15]	middle band
UAAUCCUAGUGAUAAUUAUCAAGUGGUGGGCGAGGACCGGUACGGCCGCCACUCGAAUAUGCAGUGAUGUUGUAAUCCGGAUAAU [Exclusion - Tryptophan A (Freestyle 7)]	high band
GCUAAGGAGUGAUGUUCCAAGUGAUGUUAACGAGGACCGGUACGGCCGCCACUCGAUACGGCCGGACCGUAAGAUAAACUACAGC [Same State - Tryptophan A (Freestyle 6)]	middle band
GGAUAGGAUAGAGGAUAUGGAAAACACAGAAGUGACUUGUUGUGUUUAUCCAUAGGGAGUGAUGUUCCAGAAGGCUGUCCUAUCG [MatMod 22 - Jieux - Exclusion - FMN B]	middle band
AGACGCCAGUCGGCCGCCACUCACAGCAGUGAUGUUGCUGAGAAUCUAGAAGAGUGAUGUUCUUAGAGGACCGGGACUCCAGUCG [Same State Tryptophan B GF 7]	middle band
UGACAUUGCUCAGAUACCAGACAAGAGGAUCACCCUUGUGCCAACGUACAAAUAAUAAAUGUCCCUUGGCAGCUGAGCAAUGUCU [TheoBX 15]	low band

Reference for the values: the supplement of paper PMC9170038
